Cited source for all entries: paper PMC8097242

Target: N-terminal CRD of hGalectin-4 (Gal-4N) (Homo sapiens, UniProt P56470)
Construct: N-terminal CRD of hGalectin-4 (amino acids 1–150, including an additional C-terminus His-Tag); His-Tag (C, cleaved yes); made in house; host or cells: E. coli BL21 (pET29b)
Sequence (P56470 1-150): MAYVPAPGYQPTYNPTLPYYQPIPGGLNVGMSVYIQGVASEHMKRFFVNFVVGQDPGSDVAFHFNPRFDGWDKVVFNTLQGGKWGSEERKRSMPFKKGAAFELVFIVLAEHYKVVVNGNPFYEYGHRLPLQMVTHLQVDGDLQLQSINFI
Test: 1H Saturation Transfer Difference (STD) NMR epitope mapping
Assay type: binding
Settings: 1H-residue H4Galβ
Measured attribute: STD-AF

# annotated cases, reported STD-AF shown
>>> assay_result("CC(=O)NC1C(OC2C(O)C(O)OC(CO)C2O)OC(CO)C(O)C1OC1OC(CO)C(O)C(OC2OC(CO)C(O)C(O)C2O)C1OC1OC(C)C(O)C(O)C1O (stereo not drawn)")
0.0064
>>> assay_result("CC(=O)NC1C(O)OC(CO)C(OC2OC(CO)C(O)C(OC3OC(CO)C(O)C(O)C3O)C2OC2OC(C)C(O)C(O)C2O)C1O (stereo not drawn)")
0.0081

a: CC(=O)NC1C(OC2C(O)C(CO)OC(OC3C(CO)OC(O)C(O)C3O)C2OC2OC(C)C(O)C(O)C2O)OC(CO)C(O)C1O (stereo not drawn)
b: CC1OC(OC2C(OC3C(CO)OC(O)C(O)C3O)OC(CO)C(O)C2OC2OC(CO)C(O)C(O)C2O)C(O)C(O)C1O (stereo not drawn)
[Q] Please compare: a and b . Report which one has the smaller STD-AF value. Refer to your chosen item by its label in the answer.
[A] a

---

Target: N-terminal CRD of hGalectin-4 (Gal-4N) (Homo sapiens)
Construct: N-terminal CRD of hGalectin-4 (amino acids 1–150, including an additional C-terminus His-Tag); His-Tag (C, cleaved yes); made in house; host or cells: E. coli BL21 (pET29b)
Test: Isothermal titration calorimetry (ITC)
Format: binding
Experimental: Isothermal titration calorimetry experiments were performed using the MicroCal PEAQ-ITC calorimeter (Malvern Panalytical, Malvern, United Kingdom). […] Isothermal titratrion calorimetry (ITC). […] The association constants and the thermodynamic profile of the binding was calculated from the fitting of the titration data to a single binding site model.
Measured attribute: -TΔS (kcal mol^–1) (ITC)

>>> assay_result("CC(=O)N[C@@H]1[C@@H](O[C@@H]2O[C@H](CO)[C@H](O)[C@H](O[C@H]3O[C@H](CO)[C@H](O)[C@H](O)[C@H]3O)[C@H]2O[C@@H]2O[C@@H](C)[C@@H](O)[C@@H](O)[C@@H]2O)[C@H](O)[C@@H](CO)O[C@H]1O")
2.3

P: CC(=O)NC1C(O)OC(CO)C(OC2OC(CO)C(O)C(OC3OC(CO)C(O)C(O)C3O)C2OC2OC(C)C(O)C(O)C2O)C1O (stereo not drawn)
Q: CC(=O)N[C@@H]1[C@@H](O[C@@H]2O[C@H](CO)[C@H](O)[C@H](O[C@H]3O[C@H](CO)[C@H](O)[C@H](O)[C@H]3NC(C)=O)[C@H]2O[C@@H]2O[C@@H](C)[C@@H](O)[C@@H](O)[C@@H]2O)[C@H](O)[C@@H](CO)O[C@H]1O
[Q] Which value of -TΔS (kcal mol^–1) (ITC) is numerically greater: that of P or that of Q ? Refer to your chosen item by its label in the answer.
[A] P

1: CC(=O)NC1C(OC2C(O)C(CO)OC(OC3C(CO)OC(O)C(O)C3O)C2OC2OC(C)C(O)C(O)C2O)OC(CO)C(O)C1O (stereo not drawn)
2: CC1OC(OC2C(OC3C(CO)OC(O)C(O)C3O)OC(CO)C(O)C2OC2OC(CO)C(O)C(O)C2O)C(O)C(O)C1O (stereo not drawn)
[Q] Please compare: 1 and 2 . Report which one has the smaller -TΔS (kcal mol^–1) (ITC) value. Refer to your chosen item by its label in the answer.
[A] 1
(1: 2.9 kcal mol^–1, 2: 6.4 kcal mol^–1)

---

Target: N-terminal CRD of hGalectin-4 (Gal-4N) (Homo sapiens)
Construct: N-terminal CRD of hGalectin-4 (amino acids 1–150, including an additional C-terminus His-Tag); His-Tag (C, cleaved yes); made in house; host or cells: E. coli BL21 (pET29b)
Sequence (P56470 1-150): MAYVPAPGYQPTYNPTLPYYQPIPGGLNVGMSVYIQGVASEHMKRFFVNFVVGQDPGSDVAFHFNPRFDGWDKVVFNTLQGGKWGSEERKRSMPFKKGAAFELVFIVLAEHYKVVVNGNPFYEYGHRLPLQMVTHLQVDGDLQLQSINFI
Test: 1H Saturation Transfer Difference (STD) NMR epitope mapping
Format: binding
Conditions: 1H-residue H1Galβ
Measured attribute: STD-AF

# annotated cases, reported STD-AF shown
>>> assay_result("CC(=O)N[C@@H]1[C@@H](O[C@@H]2O[C@H](CO)[C@H](O)[C@H](O[C@H]3O[C@H](CO)[C@H](O)[C@H](O)[C@H]3O)[C@H]2O[C@@H]2O[C@@H](C)[C@@H](O)[C@@H](O)[C@@H]2O)[C@H](O)[C@@H](CO)O[C@H]1O")
0.0066
>>> assay_result("CC(=O)N[C@H]1[C@@H](O[C@H]2[C@@H](O)[C@@H](CO)O[C@@H](O[C@H]3[C@@H](O)[C@@H](CO)O[C@@H](O[C@@H]4[C@@H](O)[C@H](O)O[C@H](CO)[C@@H]4O)[C@@H]3NC(C)=O)[C@@H]2O[C@@H]2O[C@@H](C)[C@@H](O)[C@@H](O)[C@@H]2O)O[C@H](CO)[C@H](O)[C@@H]1O")
0.0092
>>> assay_result("CC(=O)NC1C(O)OC(CO)C(OC2OC(CO)C(O)C(OC3OC(CO)C(O)C(O)C3O)C2OC2OC(C)C(O)C(O)C2O)C1O (stereo not drawn)")
0.0088

1: CC(=O)NC1C(OC2C(O)C(CO)OC(OC3C(CO)OC(O)C(O)C3O)C2OC2OC(C)C(O)C(O)C2O)OC(CO)C(O)C1O (stereo not drawn)
2: CC(=O)NC1C(OC2C(O)C(O)OC(CO)C2O)OC(CO)C(O)C1OC1OC(CO)C(O)C(OC2OC(CO)C(O)C(O)C2O)C1OC1OC(C)C(O)C(O)C1O (stereo not drawn)
3: CC1OC(OC2C(OC3C(CO)OC(O)C(O)C3O)OC(CO)C(O)C2OC2OC(CO)C(O)C(O)C2O)C(O)C(O)C1O (stereo not drawn)
[Q] Sort the 3 molecules by STD-AF; largest first, smallest last. Quick reminder: the answer is the labels in the order asked.
[A] 3, 1, 2
(3: 0.0298, 1: 0.0091, 2: 0.0046)

---

Target: N-terminal CRD of hGalectin-4 (Gal-4N) (Homo sapiens)
Construct: N-terminal CRD of hGalectin-4 (amino acids 1–150, including an additional C-terminus His-Tag); His-Tag (C, cleaved yes); made in house; host or cells: E. coli BL21 (pET29b)
Sequence (P56470 1-150): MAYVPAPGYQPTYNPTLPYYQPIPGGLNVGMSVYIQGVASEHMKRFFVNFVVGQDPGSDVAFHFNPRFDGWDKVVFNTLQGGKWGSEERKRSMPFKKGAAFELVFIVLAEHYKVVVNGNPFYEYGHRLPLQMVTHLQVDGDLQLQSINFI
Test: 1H-15N HSQC NMR-based titrations (chemical shift perturbation) of 15N-labeled Gal-4N
Type: binding
Conditions: HSQC NMR-based titration, 50 μM 15N-labeled lectin, 298 K; read-out: KD (μM) (NMR)
Measured attribute: Kd (µM)

# annotated cases, reported Kd shown
>>> assay_result("CC(=O)NC1C(OC2C(O)C(O)OC(CO)C2O)OC(CO)C(O)C1OC1OC(CO)C(O)C(OC2OC(CO)C(O)C(O)C2O)C1OC1OC(C)C(O)C(O)C1O (stereo not shown)")
460
>>> assay_result("CC(=O)N[C@H]1[C@@H](O[C@H]2[C@@H](O)[C@@H](CO)O[C@@H](O[C@H]3[C@@H](O)[C@@H](CO)O[C@@H](O[C@@H]4[C@@H](O)[C@H](O)O[C@H](CO)[C@@H]4O)[C@@H]3NC(C)=O)[C@@H]2O[C@@H]2O[C@@H](C)[C@@H](O)[C@@H](O)[C@@H]2O)O[C@H](CO)[C@H](O)[C@@H]1O")
1380

1: CC(=O)NC1C(O)OC(CO)C(OC2OC(CO)C(O)C(OC3OC(CO)C(O)C(O)C3NC(C)=O)C2OC2OC(C)C(O)C(O)C2O)C1O (stereo not shown)
2: CC(=O)NC1C(OC2C(O)C(CO)OC(OC3C(CO)OC(O)C(O)C3O)C2OC2OC(C)C(O)C(O)C2O)OC(CO)C(O)C1O (stereo not shown)
[Q] Which value of Kd is numerically greater: that of 1 or that of 2 ? Refer to your chosen item by its label in the answer.
[A] 1
(1: 370 µM, 2: 150 µM)
